The measurements presented in this section are drawn from PubChem BioAssay (NCI).

Tested on: HT29 colon
Assay: NCI-60 one-dose screen, 48 h
Conditions: 10 µM
The panel holds about 83,000 compounds, 20% with a hit somewhere; the sample as a whole holds those more often. Activity calls are given as the source filed them. The calls were made as follows: active = growth percent below 10; inactive = the rest.
Answer with one of the outcomes given here: TRUE (active), FALSE (inactive)

Examples from the recorded data:
{"columns": ["MOLECULE_SMILES", "CLASS_ASSIGNMENT"],
 "data": [
  ["C/C(=C\\CC/C=C(\\C)CC/C=C(\\C)CC[C@@H](O)C(C)(C)O)CC/C=C(\\C)CC[C@@H](O)C(C)(C)O", "TRUE"],
  ["CC(=O)Oc1ccccc1C(=O)Oc1ccc(C(=O)/C=C/c2ccncc2)cc1", "FALSE"],
  ["COc1ccsc1/C=N/NC(=O)c1[nH]c2ccc(Br)cc2c1-c1ccccc1", "TRUE"],
  ["O=C(CNc1nc(-c2ccccc2)cs1)Nc1ccc(Cl)cc1[N+](=O)[O-]", "TRUE"]
]}

What outcome does the record of this test show for COc1ccc(OC)c(-c2cc(-c3c[nH]c4ccccc34)nc(N)c2C#N)c1 ?
TRUE

What outcome does the record of this test show for COc1ccc(CCN2C(=O)/C(=C/c3csc(C#N)n3)SC2=S)cc1OC ?
TRUE

What outcome does the record of this test show for CC[C@@]1(O)C(=O)OCc2c1cc1n(c2=O)Cc2c-1nc1cc(F)c(C)c3c1c2[C@@H](N)CC3 ?
TRUE

What outcome does the record of this test show for Clc1ccc(/C=N/Nc2ncnc3sc4c(c23)CCN(Cc2ccccc2)C4)cc1 ?
TRUE

What outcome does the record of this test show for O=C(Nc1nc2ccc([N+](=O)[O-])cc2s1)Nc1cc(Cl)ccc1I ?
TRUE
